Tested on: HCT-15 colon
PROTOCOL DESCRIPTION: NCI tumour cell line growth inhibition, 48 h; in the data active = GI50 below about 0.43 µM; inactive = the rest
Possible outcomes: active, inactive

C/C(=C\c1ccn(-c2ccc(N)c(F)c2)n1)[C@@H]1C[C@@H]2O[C@]2(C)CCC[C@H](C)[C@H](O)[C@@H](C)C(=O)C(C)(C)[C@@H](O)CC(=O)O1 ... active
C=CC(=O)N1CCN(c2nc(OC[C@@H]3CCCN3C)nc3c2CCN(c2cccc4cccc(C)c24)C3)C[C@@H]1CC#N ... inactive
Cn1ccnc1C(=O)/C=C/c1ccc(CC(=O)Nc2ccc(S(F)(F)(F)(F)F)cc2)cc1 ... inactive
COc1cc(C(O)c2nc3ccccc3s2)cc(OC)c1OC (stereo not drawn) ... inactive
N=c1c2c(-c3ccccc3)c(-c3ccccc3)n(Cc3ccccc3)c2ncn1CCCO ... inactive
O=C1C=C[C@@]23C[C@@H](Nc4c(O)c5c6c(c42)=NCCC=6C=N5)SC3=C1 ... inactive
CCN1CCN(CC(=O)Nc2nc3ccc(NCc4ccc(Cl)cc4)cc3s2)CC1 ... inactive
C=CC1=C[C@@H]2[C@@H]3O[C@]4(CC[C@H](O4)[C@@H](C)C[C@@H](O)C3=O)C[C@H](O)C3=NCC[C@@]32CC1 ... active
COc1cc2c3c(n(CCCNCC(OC)OC)c(=O)c2cc1OC)-c1cc2c(cc1C3=O)OCO2 ... inactive
O=C1CC(c2ccc3c(c2)OCO3)Nc2cc3c(cc21)OCO3 (stereo not drawn) ... inactive
Cc1nc2sc(C(=O)Nc3cccc4ccccc34)c(N)c2cc1C(=O)/C=C/c1ccccc1 ... active
CC(C)(O)C1CCC(Nc2ccc3ncc(-c4cccc(C(F)(F)F)c4)n3n2)CC1 (stereo not drawn) ... inactive
COc1ccc(-c2cc(-c3ccccc3)nc(N3CCN(CCNc4ccnc5cc(Cl)ccc45)CC3)n2)cc1 ... inactive

###

Reported TGI values follow for various compounds
System: MDA-MB-435
PROTOCOL DESCRIPTION: NCI tumour cell line growth inhibition, 48 h
REPORTED PROPERTY: TGI

O=C(N/N=C/c1ccc([N+](=O)[O-])cc1)c1cccc2nc3ccccc3nc12 ... > 100 µM
CCOP(=O)(OCC)/C(C#N)=C/c1ccc(-c2ccc(F)cc2F)o1 ... 27 µM
C=C1CCC2CC1[C@@H](C(=O)c1c[nH]c3ccccc13)NC2(C)C (stereo not given in full) ... > 37.5 µM
O=C1C=C[C@@]23C[C@@H](Nc4c(O)c5c6c(c42)=NCCC=6C=N5)SC3=C1 ... 2.98 µM
CC(=O)Nc1ccccc1C=C1c2ccccc2-c2ccccc21 ... > 100 µM
Nc1ccc2nc3ccc(N)cc3[n+](-c3ccccc3)c2c1 ... > 100 µM
COc1cc2c3c(n(CCCNCC(OC)OC)c(=O)c2cc1OC)-c1cc2c(cc1C3=O)OCO2 ... 97 µM
COc1ccn2c(C(C)=O)cc(C(=O)c3ccc4c(c3)Sc3ccccc3N4)c2c1 ... 0.0454 µM
CS(=O)(=O)c1ccc(-c2cnc(N)c(C(=O)Nc3ccccc3)n2)cc1 ... > 100 µM
C=CCOC1=C(OCC=C)C(C2COC(C)(C)O2)OC1=O (stereo not given) ... > 100 µM
C/C(=N\Nc1ccccc1Br)c1cccc(/C(C)=N/Nc2ccccc2Br)n1 ... > 100 µM
CCN1CCN(CC(=O)Nc2nc3ccc(NCc4ccc(Cl)cc4)cc3s2)CC1 ... 3.81 µM
N#Cc1c(-c2ccc(Cl)cc2)c(C#N)c(=O)n(NS(=O)(=O)c2ccccc2)c1S ... 65 µM
COc1ccc(C2C3CCc4ccccc4C3=NN2S(=O)(=O)c2ccc(Cl)cc2)cc1 (stereo not given) ... 4.62 µM
Cc1nc2ccc(F)cc2c2c1CCO2 ... > 100 µM
CC1=CCC(OC(=O)C(C)(C)CCC(O)(C(=O)OC2(C(C)C)CCC3(C)OC3C2)C(C)C)(C(C)C)CC1 (stereo not given) ... 1.04 µM
O=C1/C(=C/c2ccc([N+](=O)[O-])o2)Oc2ccc(Br)cc21 ... 4.03 µM
CC(O)(/C=C/c1ccccc1)P(=O)(O)c1ccccc1 (stereo not given) ... > 100 µM
COc1cc(/C=C/C(=O)OC2C(O)C3CC(OC(=O)c4cc(OC)c(OC)c(OC)c4)CC2N3C)cc(OC)c1OC (stereo not given) ... > 50 µM
CCOC(=O)c1cc(C2CCN(CC(C)CC)C2=S)c(-c2cc(C)no2)[nH]1 (stereo not given) ... > 100 µM
CC(=O)OC1COC(n2nc(/C=C/c3ccc(Cl)cc3)c(=O)n(/N=C/c3ccccc3)c2=S)C(OC(C)=O)C1OC(C)=O (stereo not given) ... > 100 µM
C[C@]12CC[C@@H]3c4ccc(O)cc4CC[C@H]3[C@@H]1CC[C@@H]2NS(=O)(=O)c1cccc(C(F)(F)F)c1 ... 8.62 µM
COC1(O)C(=O)c2ccccc2OC1(OC)c1ccccc1 (stereo not given) ... > 100 µM
CCN(CC)c1ccc(C2SCC(=O)N2c2ccc(NC(=O)c3ccc(N4C(=O)CSC4c4ccc(N(CC)CC)cc4)cc3)cc2)cc1 (stereo not given) ... > 100 µM
COc1ccc(C(=O)COc2cccc(/C=C3\CSc4ccccc4C3=O)c2)cc1 ... 4.62 µM
CC(C)C[C@H](NC(=O)[C@H]1O[C@@H]1C(=O)O)C(=O)NCCc1ccc(O)cc1 ... > 100 µM
O=C1/C(=C/c2ccc3c(c2)OCO3)CCC1CN1CCOCC1 (stereo not given) ... 40.6 µM
Nc1ncnc2c1ncn2CC(O)C(=O)O (stereo not given) ... > 100 µM
Cn1c(=O)c(Oc2ccc(F)cc2F)cc2cnc(NC(CO)CO)nc21 ... > 25 µM
O=c1[nH]/c(=C/c2ccc(OCc3ccccc3)cn2)c(=O)[nH]/c1=C/c1ccc(Cl)cc1 ... 0.796 µM
NC(=O)NO ... > 2500 µM
CC1=C(O)C(=O)C[C@]2(C)[C@H]3CC=C4[C@@H]5CC(C)(C)CC[C@@H]5C(=O)[C@H](O)[C@@]4(C)[C@]3(C)CC[C@@H]12 ... > 50 µM
N#CCC(=O)c1cc(OCc2cc(OCc3ccc(Br)cc3)cc(OCc3ccc(Br)cc3)c2)cc(OCc2cc(OCc3ccc(Br)cc3)cc(OCc3ccc(Br)cc3)c2)c1 ... > 100 µM
COc1ccc(N=Nc2ccc3oc(=O)c(C(=O)Nc4ccccc4)cc3c2)cc1 ... > 10 µM
FC(F)(F)C(C1=NC(C(F)(F)F)(C(F)(F)F)N=C(N2CCOCC2)O1)C(F)(F)F ... 59.3 µM
O=C(Cn1cc(F)c(=O)[nH]c1=O)C12CC3CC(CC(C3)C1)C2 ... > 100 µM
N=C(N)C(N=Nc1ccccc1)C(N)=O (stereo not given) ... > 100 µM
C(=Nc1ccc(-c2cc(-c3ccccc3)nc3ccc4ccccc4c23)cc1)c1ccccc1 ... 55.5 µM
COc1ccc(-c2nnc(SCC(=O)Nc3ccc(/C(C)=N\O)cc3)n2-c2ccccc2)cc1OC ... > 100 µM
c1cc(CCN2CCCCC2)ccn1 ... > 100 µM

###

System: SF-295 CNS
PROTOCOL DESCRIPTION: NCI tumour cell line growth inhibition, 48 h
REPORTED PROPERTY: TGI

CC1=C(O)C(=O)C[C@]2(C)[C@H]3CC=C4[C@@H]5CC(C)(C)CC[C@@H]5C(=O)[C@H](O)[C@@]4(C)[C@]3(C)CC[C@@H]12 ... > 50 µM
OCC1OC(NCCNCCNC2OC(CO)C(O)C(O)C2O)C(O)C(O)C1O (stereo unspecified) ... > 100 µM
CS(=O)(=O)OCCn1cnc2nc(NC(=O)c3ccccc3)[nH]c(=O)c21 ... > 100 µM
CCOP(=O)(OCC)/C(C#N)=C/c1ccc(-c2ccc(F)cc2F)o1 ... 30.8 µM
CN(C)CCCNc1ncnc2nc[nH]c12 ... > 100 µM
N=c1c2c(-c3ccccc3)c(-c3ccccc3)n(Cc3ccccc3)c2ncn1CCCO ... 3.32 µM
C(=C\c1nccs1)/c1cccc(/C=C/c2nccs2)n1 ... > 50 µM
C(=Nc1ccc(-c2cc(-c3ccccc3)nc3ccc4ccccc4c23)cc1)c1ccccc1 ... 48.8 µM
CN(C)c1ccc(-c2cc(-c3ccc(Nc4nc(Nc5ccccc5)nc(Nc5ccc(Cl)cc5)n4)cc3)nc(N)n2)cc1 ... 16.6 µM
Cc1ccc2c(c1C)-c1c(ccc(C)c1C)C(=O)C2=O ... 2.95 µM
COC(=O)C12OC(C)(C(CC(=O)OC(C)(C)C)C1=O)C1C(=O)N(c3ccccc3)C(=O)C12 (stereo unspecified) ... > 100 µM
Cc1nn(C(=O)c2ccncc2)c2c1C(c1ccc(Cl)cc1)SC(N)=N2 (stereo unspecified) ... > 10 µM
Fc1cccc2cc3ccc4cccc5ccc(c12)c3c45 ... > 100 µM
Cc1ccc(NC(=O)c2cc3ccccc3c(N=Nc3ccccc3O)c2O)c(C)c1 ... 10.5 µM
O=c1c2cccc3cccc(c4oc5c6cccc7cccc(c(=O)c5c14)c76)c32 ... > 31.6 µM
NNC(=O)CCC(=O)Nc1cc(Cl)c(Cl)cc1Cl ... > 100 µM
Nc1ccc(C(=O)NN2C(=O)C(Cl)C2c2cc(Br)ccc2O)cc1 (stereo unspecified) ... > 100 µM
O=C(Cc1ccccc1)NN1C(=O)C(Cl)C1c1ccc([N+](=O)[O-])cc1 (stereo unspecified) ... > 100 µM
CN(C)CCNC(=O)c1ccc(C(=O)NCCN(C)C)c2nc3ccccc3cc12 ... 16.4 µM
O=c1[nH]nc2ccccc2c1Cl ... 46.9 µM
O=c1c(Sc2c(O)c3ccccc3c3ccccc3c2=O)c(O)c2ccccc2c2ccccc12 ... > 100 µM

Cited source for all entries: PubChem BioAssay (NCI)
